Recorded viability, T/C values for a group of compounds are listed next.
- Tested on: 941728-121-R-J1-PDC complex spheroid viability
- Assay procedure: Anticancer human tumor 941728-121-R-J1-PDC patient-derived lung adenocarcinoma cell line growth inhibition [RAS]
- Particulars: second compound 0.003 µM; first compound 0.003 µM; stronger effect = lower value
- Text: RAS pathway inhibitors in Combinations in Complex Spheroids A high-throughput screen of multi-cell type tumor spheroids was designed to identify active combinations of RAS pathway inhibitors and targeted small molecules. Complex spheroids include a stromal component modeled by human endothelial cells (HUVEC) and fibroblasts modeled by human mesenchymal stem cells (MSCs). […] Compounds. […] If the clinical Cmax for an agent had not been determined, the highest concentration tested was 10 microM. […]

- Compound: "CCc1c2c(nc3ccc(O)cc13)-c1cc3c(c(=O)n1C2)COC(=O)[C@]3(O)CC + CCn1c(-c2cc(N3CCN(C)CC3)cnc2C(C)OC)c2c3cc(ccc31)-c1csc(n1)CC(NC(=O)C1CC1C)C(=O)N1CCCC(N1)C(=O)OCC(C)(C)C2"
  viability, T/C: "16.7%"

Req: Give me measured viability, T/C, please, for this compound: CC1(C)CCC(Nc2ncc(C(F)(F)F)c(-c3c[nH]c4c(P(C)(C)=O)c(C#N)ccc34)n2)CN1 (centres undefined) + CCn1c(-c2cc(N3CCN(C)CC3)cnc2C(C)OC)c2c3cc(ccc31)-c1csc(n1)CC(NC(=O)C1CC1C)C(=O)N1CCCC(N1)C(=O)OCC(C)(C)C2
Resp: 18.5%

Req: Give me measured viability, T/C, please, for this compound: CC1(C)CCC(Nc2ncc(C(F)(F)F)c(-c3c[nH]c4c(P(C)(C)=O)c(C#N)ccc34)n2)CN1 (centres undefined) + CCn1c(-c2cccnc2C(C)OC)c2c3cc(ccc31)N1CCOC(CC(NC(=O)C(C(C)C)N(C)C(=O)C3(F)CCN(C(=O)C#CC(C)(C)N(C)C)CC3)C(=O)N3CCCC(N3)C(=O)OCC(C)(C)C2)C1
Resp: 19.5%

Req: Give me measured viability, T/C, please, for this compound: CCc1c2c(nc3ccc(O)cc13)-c1cc3c(c(=O)n1C2)COC(=O)[C@]3(O)CC + CCn1c(-c2cccnc2C(C)OC)c2c3cc(ccc31)N1CCOC(CC(NC(=O)C(C(C)C)N(C)C(=O)C3(F)CCN(C(=O)C#CC(C)(C)N(C)C)CC3)C(=O)N3CCCC(N3)C(=O)OCC(C)(C)C2)C1
Resp: 21.1%

====

- System: 941728-121-R-J1-PDC complex spheroid viability
- Assay procedure: Anticancer human tumor 941728-121-R-J1-PDC cell line growth inhibition [RAS];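 further: spheroids exposed to compounds for 7 days before readout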;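 on viability, T/C: 100% = DMSO vehicle control viability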
- Particulars: second compound 0.000949 µM; first compound 1 µM; stronger effect = lower value
- Excerpt: RAS pathway inhibitors in Combinations in Complex Spheroids A high-throughput screen of multi-cell type tumor spheroids was designed to identify active combinations of RAS pathway inhibitors and targeted small molecules. Complex spheroids include a stromal component modeled by human endothelial cells (HUVEC) and fibroblasts modeled by human mesenchymal stem cells (MSCs). […] Compounds. […] If the clinical Cmax for an agent had not been determined, the highest concentration tested was 10 microM. […]
Recorded viability, T/C values for a group of compounds are listed next.

Reference set (3 entries):
- Compound: "CC(=O)OC12COC1CC(O)C1(C)C(=O)C(O)C3=C(C)C(OC(=O)C(O)C(NC(=O)OC(C)(C)C)c4ccccc4)CC(O)(C(OC(=O)c4ccccc4)C21)C3(C)C (centres undefined) + CCn1c(-c2cc(N3CCN(C)CC3)cnc2C(C)OC)c2c3cc(ccc31)-c1csc(n1)CC(NC(=O)C1CC1C)C(=O)N1CCCC(N1)C(=O)OCC(C)(C)C2"
  Parameter measured: "viability, T/C"
  Result: "19.6%"
- Compound: "C[C@@H](NC(=O)c1ncnc(N)c1Cl)c1ncc(C(=O)Nc2cc(C(F)(F)F)c(Cl)cn2)s1 + CCn1c(-c2cc(N3CCN(C)CC3)cnc2C(C)OC)c2c3cc(ccc31)-c1csc(n1)CC(NC(=O)C1CC1C)C(=O)N1CCCC(N1)C(=O)OCC(C)(C)C2"
  Parameter measured: "viability, T/C"
  Result: "34%"
- Compound: "CC(C)NCC(C(=O)N1CCN(c2ncnc3c2C(C)CC3O)CC1)c1ccc(Cl)cc1 (centres undefined) + CCn1c(-c2cc(N3CCN(C)CC3)cnc2C(C)OC)c2c3cc(ccc31)-c1csc(n1)CC(NC(=O)C1CC1C)C(=O)N1CCCC(N1)C(=O)OCC(C)(C)C2"
  Parameter measured: "viability, T/C"
  Result: "20.1%"

Now consider the entry below.
Req: Write down measured viability, T/C (941728-121-R-J1-PDC complex spheroid viability) for this compound. CC(C)NCC(C(=O)N1CCN(c2ncnc3c2C(C)CC3O)CC1)c1ccc(Cl)cc1 (centres undefined) + CCn1c(-c2cccnc2C(C)OC)c2c3cc(ccc31)N1CCOC(CC(NC(=O)C(C(C)C)N(C)C(=O)C3(F)CCN(C(=O)C#CC(C)(C)N(C)C)CC3)C(=O)N3CCCC(N3)C(=O)OCC(C)(C)C2)C1
Resp: 18.8%

====

- Test system: 941728-121-R-J1-PDC complex spheroid viability
- Assay procedure: Anticancer human tumor 941728-121-R-J1-PDC cell line growth inhibition [RAS];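 further: spheroids exposed to compounds for 7 days before readout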;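 on viability, T/C: 100% = DMSO vehicle control viability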
- Particulars: second compound 0.1 µM; first compound 0.0316 µM; stronger effect = lower value
# note: boundary value 40% maps to criterion not met; viability, T/C below it maps to criterion met

Check out these entries, answers already filled in.
- Compound: "NC1c2ccccc2OC12CCN(c1cnc3c(N4CCCc5ncccc54)n[nH]c3n1)CC2 (stereo not given) + C#Cc1c(F)ccc2cc(O)cc(-c3ncc4c(N5CC6CCC(C5)N6)nc(OCC56CCCN5CC(F)C6)nc4c3F)c12"
  Group label: "criterion met"
- Compound: "Cc1nc(N2CCC3(CC2)COC(C)C3N)c(CO)nc1Sc1ccnc(N)c1Cl (stereo not given) + C#Cc1c(F)ccc2cc(O)cc(-c3ncc4c(N5CC6CCC(C5)N6)nc(OCC56CCCN5CC(F)C6)nc4c3F)c12"
  Group label: "criterion not met"

Req: Is the reported viability, T/C for CCN1CCN(Cc2ccc(Nc3ncc(F)c(-c4cc(F)c5nc(C)n(C(C)C)c5c4)n3)nc2)CC1 + C#Cc1c(F)ccc2cc(O)cc(-c3ncc4c(N5CC6CCC(C5)N6)nc(OCC56CCCN5CC(F)C6)nc4c3F)c12 strictly below 40%?
Resp: criterion not met

Req: Is the reported viability, T/C for CC(Nc1ccc2c(c1)OCCn1cc(N3C(=O)OCC3C(F)F)nc1-2)C(N)=O (stereo not given) + C#Cc1c(F)ccc2cc(O)cc(-c3ncc4c(N5CC6CCC(C5)N6)nc(OCC56CCCN5CC(F)C6)nc4c3F)c12 strictly below 40%?
Resp: criterion not met

Req: Is the reported viability, T/C for CCN1CCN(Cc2ccc(Nc3ncc(F)c(-c4cc(F)c5nc(C)n(C(C)C)c5c4)n3)nc2)CC1 + C=CC(=O)N1CCN(c2nc(OCC3CCCN3C)nc3c(F)c(-c4nc(N)cc(C)c4C(F)(F)F)c(Cl)cc23)C(C)C1 strictly below 40%?
Resp: criterion met

====

- System: 941728-121-R-J1-PDC complex spheroid viability
- Assay procedure: Anticancer human tumor 941728-121-R-J1-PDC cell line growth inhibition [RAS];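 further: spheroids exposed to compounds for 7 days before readout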
- Particulars: curve of first compound; second compound 0.316 µM
Recorded IC50 values for a group of compounds are listed next.

- Compound: "O=C(c1ccc(F)c(F)c1Nc1ccc(I)cc1F)N1CC(O)([C@@H]2CCCCN2)C1 + C#Cc1c(F)ccc2cc(O)cc(-c3ncc4c(N5CC6CCC(C5)N6)nc(OCC56CCCN5CC(F)C6)nc4c3F)c12"
  IC50: "< 3.16 nM"
- Compound: "CC1(C)CCC(Nc2ncc(C(F)(F)F)c(-c3c[nH]c4c(P(C)(C)=O)c(C#N)ccc34)n2)CN1 (stereo not given) + C#Cc1c(F)ccc2cc(O)cc(-c3ncc4c(N5CC6CCC(C5)N6)nc(OCC56CCCN5CC(F)C6)nc4c3F)c12"
  IC50: "< 0.949 nM"

Req: Give me measured IC50, please, for this compound: CCc1c2c(nc3ccc(O)cc13)-c1cc3c(c(=O)n1C2)COC(=O)[C@]3(O)CC + C#Cc1c(F)ccc2cc(O)cc(-c3ncc4c(N5CC6CCC(C5)N6)nc(OCC56CCCN5CC(F)C6)nc4c3F)c12
Resp: < 0.949 nM

Req: Give me measured IC50, please, for this compound: CC1(O)CCCC1n1c(=O)c(C(F)F)cc2cnc(NC3CCN(S(C)(=O)=O)CC3)nc21 (stereo not given) + C=CC(=O)N1CCN(c2nc(OCC3CCCN3C)nc3c(F)c(-c4nc(N)cc(C)c4C(F)(F)F)c(Cl)cc23)C(C)C1
Resp: < 31.6 nM

Req: Give me measured IC50, please, for this compound: CC1(C)CCC(Nc2ncc(C(F)(F)F)c(-c3c[nH]c4c(P(C)(C)=O)c(C#N)ccc34)n2)CN1 (stereo not given) + C=CC(=O)N1CCN(c2nc(OCC3CCCN3C)nc3c(F)c(-c4nc(N)cc(C)c4C(F)(F)F)c(Cl)cc23)C(C)C1
Resp: < 0.949 nM
